- Tested target: human GLP-1R (SNAP-GLP-1R expressed in HEK293 cells) (human) (UniProt P43220)
- Sequence (P43220 24-463): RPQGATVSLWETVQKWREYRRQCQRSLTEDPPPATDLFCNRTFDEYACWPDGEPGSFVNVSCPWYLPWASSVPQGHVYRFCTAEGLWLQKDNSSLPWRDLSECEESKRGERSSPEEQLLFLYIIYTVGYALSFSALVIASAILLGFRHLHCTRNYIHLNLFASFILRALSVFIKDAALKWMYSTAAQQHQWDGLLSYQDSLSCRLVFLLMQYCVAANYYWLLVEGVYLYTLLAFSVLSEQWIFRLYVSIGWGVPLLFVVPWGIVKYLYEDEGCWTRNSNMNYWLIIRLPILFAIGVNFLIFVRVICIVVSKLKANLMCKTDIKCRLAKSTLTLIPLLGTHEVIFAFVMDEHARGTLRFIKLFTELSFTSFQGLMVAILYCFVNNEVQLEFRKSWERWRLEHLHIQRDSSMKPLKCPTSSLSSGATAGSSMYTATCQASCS
- Assay method text: cell-based or functional assay
Reported GLP1R Internalization EC50 is given for each of the following binders.
Respond with the bare value in nM.

YXQGTFTSDXSXXLDKKAQXAFIEWLLEGGPSSGEPPPSGE (synthetic construct; SITE 2: note = 2-Aminoisobutyric Acid; SITE 10: note = 3-(4-Pyridyl)-L-alanine; SITE 12: note = L-ornithine; SITE 13: note = alpha-methyl-leucine; SITE 17: note = Lysine is chemically modified through conjugation of the epsilon-amino group of the Lysine side chain with (2-[2-(2-) [Example 115] ... 255
YXQGTFTSDFSXXLDKKAQXAFIEYLLEGGHSSGAPPPGGS (synthetic construct; SITE 2: note = 2-Aminoisobutyric Acid; SITE 12: note = L-ornithine; SITE 13: note = alpha-methyl-leucine; SITE 17: note = Lysine is chemically modified through conjugation of the epsilon-amino group of the Lysine side chain with (2-[2-(2-Amino-ethoxy)-ethoxy]-acetyl)-(gamma-Glu)) [Example 162] ... 48.8
YXQGTFTSDFSRXLDKKAQXAFIEYLLEGGESSGAPPPSGS (synthetic construct; SITE 2: note = 2-Aminoisobutyric Acid; SITE 13: note = alpha-methyl-leucine; SITE 17: note = Lysine is chemically modified through conjugation of the epsilon-amino group of the Lysine side chain with (2-[2-(2-Amino-ethoxy)-ethoxy]-acetyl)-(gamma-Glu)-CO-(CH2) 16-CO2H; SITE 20: n) [Example 148] ... 95.5

Input line: Fill blank: measured GLP1R Internalization EC50 of the binder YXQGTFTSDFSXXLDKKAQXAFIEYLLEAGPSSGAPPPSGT (not fully specified; synthetic construct; SITE 2: note = 2-Aminoisobutyric Acid; SITE 12: note = L-ornithine; SITE 13: note = alpha-methyl-leucine; SITE 17: note = Lysine is chemically modified through conjugation of the epsilon-amino group of the Lysine side chain with (gamma-Glu)2-CO-(CH2)16-CO2H; SITE 20: note = 2-Am) [Example 204] is ____.
Output line: 66.4

Input line: Value lookup for GLP1R Internalization EC50; key = YXQGTFTSDFSRXLDKKAQXAFIEYLLEGGPSSGAPPPSGS (synthetic construct; SITE 2: note = 2-Aminoisobutyric Acid; SITE 13: note = alpha-methyl-leucine; SITE 17: note = Lysine is chemically modified through conjugation of the epsilon-amino group of the Lysine side chain with (2-[2-(2-Amino-ethoxy)-ethoxy]-acetyl)-(gamma-Glu)-CO-(CH2) 16-CO2H; SITE 20: n) [Example 143]
Output line: 337

Input line: If you can, please state the reported GLP1R Internalization EC50 value of YXQGTFTSDFSXXLDKKAQXAFIEYLLEAGPSSGAPPPSGX (synthetic construct; SITE 2: note = 2-Aminoisobutyric Acid; SITE 12: note = L-ornithine; SITE 13: note = alpha-methyl-leucine; SITE 17: note = Lysine is chemically modified through conjugation of the epsilon-amino group of the Lysine side chain with (2-[2-(2-Amino-ethoxy)-ethoxy]-acetyl)-(gamma-Glu)) [Example 211] .
Output line: 57.4
